These data points were gathered from the RNAGym collection of RNA variant scans (doi:10.7554/elife.80360).

B1: CPEB3 Ribozyme (parent)
chain: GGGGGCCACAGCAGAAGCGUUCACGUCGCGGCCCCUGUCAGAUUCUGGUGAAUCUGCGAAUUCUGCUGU

Variants of: B1
assay_text: self-cleavage, relative activity (ratio to wild type); higher = more cleavage; co-transcriptional
Please provide measured self-cleavage for the entries that follow.

Here is how some variants turned out for self-cleavage.
> print(dat)
   mutation.code  measured.endpoint  recorded.value
1      G17U C39U      self-cleavage           0.278
2       G5A U55G      self-cleavage           0.433
3      C57U C63U      self-cleavage            0.34
4       C7U G30C      self-cleavage           0.608
5      G11C C22G      self-cleavage            0.18

Give self-cleavage for all variants that follow.
1. G31A C33G
2. A13U U44A

1. 0.282
2. 0.659
